Just for reference, paper PMC3218832 is where these values come from.

Target: C-Rel subunit;p50 subunit (Homo sapiens;Homo sapiens, UniProt Q04864;P19838 1-285;7-356)
Sequence (Q04864 1-285, chain 1 of 2): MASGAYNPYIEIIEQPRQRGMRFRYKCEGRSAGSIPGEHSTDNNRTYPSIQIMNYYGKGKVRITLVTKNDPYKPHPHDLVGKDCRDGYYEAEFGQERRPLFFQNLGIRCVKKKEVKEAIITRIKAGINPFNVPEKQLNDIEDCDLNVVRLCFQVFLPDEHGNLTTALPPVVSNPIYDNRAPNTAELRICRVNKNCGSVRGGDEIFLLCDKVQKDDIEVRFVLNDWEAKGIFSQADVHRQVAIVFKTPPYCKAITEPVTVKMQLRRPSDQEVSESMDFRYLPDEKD
Sequence (P19838 7-356, chain 2 of 2): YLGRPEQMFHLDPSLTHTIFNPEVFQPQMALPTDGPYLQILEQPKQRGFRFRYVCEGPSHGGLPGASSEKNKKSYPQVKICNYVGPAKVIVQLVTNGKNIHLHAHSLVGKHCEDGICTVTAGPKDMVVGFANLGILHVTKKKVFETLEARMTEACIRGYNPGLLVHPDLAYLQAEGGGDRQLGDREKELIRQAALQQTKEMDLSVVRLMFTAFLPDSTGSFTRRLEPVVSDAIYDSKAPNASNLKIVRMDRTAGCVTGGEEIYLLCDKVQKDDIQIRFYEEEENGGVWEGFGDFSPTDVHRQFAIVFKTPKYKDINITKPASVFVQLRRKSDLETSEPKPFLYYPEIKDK
Test: protein binding microarray; high values mean tight binding
Details: dsDNA, one strand shown
MEASURE_NAME: binding signal

The examples below pair each entry with its known result.
Entry CGGAACGTCCC has what binding signal?
0.44 z-score

Could you do the same for AAGTATGCCCC , please?
0.628 z-score

Could you do the same for AGATTCGCCCC , please?
0.611 z-score

Could you do the same for AAAGGCCTCCC , please?
-1.17 z-score

Could you do the same for GAGTATATCCT , please?
-1.36 z-score

Could you do the same for CAGAGTGTCCC , please?
0.274 z-score

Could you do the same for AAGGTACTCCC , please?
0.206 z-score

Could you do the same for GAGGAAATCCT , please?
-0.315 z-score

Respectfully, I request binding signal for each entry included below.
1. CGATATATCCC
2. CGATAAGCCCC

1: -0.427 z-score; 2: 0.25 z-score
